test system: HCC-78; experiment: relative viability (nuclei count vs DMSO), 5 days (fraction); higher = more cells survive; details: first compound 15.81 µM
I'd appreciate it if you could supply relative viability values for the items below.
Give bare numbers.

molecule: O=C(O)CCCCC(CCSCc1ccccc1)SCc1ccccc1 (centres undefined) [CPI-613] + CC1(C)CCC(c2ccc(Cl)cc2)=C(CN2CCN(c3ccc(C(=O)NS(=O)(=O)c4ccc(N[C@H](CCN5CCOCC5)CSc5ccccc5)c(S(=O)(=O)C(F)(F)F)c4)cc3)CC2)C1 [Navitoclax] (partner 0.5 µM)
target: HCC-78
relative viability: 0.749
//
molecule: O=C(O)CCCCC(CCSCc1ccccc1)SCc1ccccc1 (centres undefined) [CPI-613] + CC(=O)Nc1cccc(-n2c(=O)n(C3CC3)c(=O)c3c(Nc4ccc(I)cc4F)n(C)c(=O)c(C)c32)c1 [Trametinib] (partner 0.02 µM)
target: HCC-78
relative viability: 0.729
//
molecule: O=C(O)CCCCC(CCSCc1ccccc1)SCc1ccccc1 (centres undefined) [CPI-613] + C[C@@H](Oc1cc(-c2cnn(C3CCNCC3)c2)cnc1N)c1c(Cl)ccc(F)c1Cl [Crizotinib] (partner 1 µM)
target: HCC-78
relative viability: 0.318

Query string: Fill blank: measured relative viability of the molecule O=C(O)CCCCC(CCSCc1ccccc1)SCc1ccccc1 (centres undefined) [CPI-613] + Nc1ncn([C@H]2C[C@H](O)[C@@H](CO)O2)c(=O)n1 [Decitabine] (partner 2 µM) is ____.
Result string: 0.709
